Recorded residual activity, one value per entry.
# System under test: Mu-type opioid receptor (Mus musculus)
# Assay context: BALB/c, Brain, Membrane, at 5 µM
# Description: Displacement of [3H]DAMGO from mu opioid receptor in BALB/c mouse brain membrane at 5 uM by liquid scintillation counting relative to control
Kindly answer with a numeric value in %, unit omitted.

These recorded examples may help you get a feel for the data.
COc1ccc(N2Cc3cccc(OC)c3OCc3cc4c(cc32)OCO4)cc1 138
COc1ccccc1N1Cc2cccc(OC)c2OCc2ccccc21 89
c1ccc(N2Cc3ccccc3OCc3ccccc32)cc1 80
COc1ccc2c(c1)COc1ccccc1CN2c1ccccc1 99
COc1ccc(N2Cc3cccc(OC)c3OCc3ccccc32)cc1 90
COc1cccc2c1OCc1cc3c(cc1N(c1ccccc1)C2)OCO3 78

Moving on to another molecule below.
// query What residual activity value was documented for this molecule, "COc1ccc(N2Cc3ccccc3OCc3ccccc32)cc1" ?
// result 86
